Entry source: the supplement of paper PMC12042874

Test: amyloid nucleation score (Sup35N fusion, yeast selection) (log enrichment); library NNK2; higher = more nucleation; inactive = no reads after selection;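 further: zero at mode of non-aggregating sequences after 7 days selection at 30°C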
Outcome: condition met for amyloid nucleation score of at least 0.1; condition not met for anything lower.

Look over these answered cases.
> print(dat)
              substance        class.label
1  VAILIMHCGAGSCRQMLMDS      condition met
2            DANDSSWEGG      condition met
3         KGGLRISSLVTYM      condition met
4  TIFGRENYEDVKSASEVGLS      condition met
5  VTTNWGSSVRNQAEGYRPSL  condition not met

Query :: hey, is amyloid nucleation score for this one >= 0.1? `DARFLPVVLRKKTDSICYVN`
Result :: condition not met

Query :: Record: `VWLCCLCWVQMDLANVNLWL`
Result :: condition met

Query :: Same lookup for `CFWWNPGSILIRWCLKVLPG` , please.
Result :: condition not met

Query :: Now this one: `SLYFVWSCLLGILKVMPTFN`
Result :: condition not met

Query :: Same read-out for `QEFLWWGREQLGVCCLGVGR` ?
Result :: condition met

Query :: Then what about the substance `WYNILLHNSAAEYLTY` ?
Result :: condition not met

Query :: What about `RSGESRWTYYLVEIYFDGSF` ?
Result :: condition not met

Query :: Same read-out for `IILTVNRRMDLEGYFYFMFE` ?
Result :: condition not met

---

Experiment: amyloid nucleation score (Sup35N fusion, yeast selection) (log enrichment); library NNK2; higher = more nucleation; inactive = no reads after selection
observation type: amyloid nucleation score

> print(dat)
         query.sequence          observation.type  meas.value
1  GDWSYGMGFNMVAMRNWEYL  amyloid nucleation score      -0.512
2  SPWVNYYPSRVYRNVNACLF  amyloid nucleation score      -0.339
3  IDNYFIRVKTFSDFMSSLDG  amyloid nucleation score    inactive
4              GDSGFKLI  amyloid nucleation score      -0.105
5  CRYEIKLCYDLMQNPLFTRS  amyloid nucleation score      -0.522

Query :: Returns the measured amyloid nucleation score for the input sequence. Input: `DNTELFKNDFKFKLYLSNKI`
Result :: 1.72

Query :: Next sequence: `TAGWIFEWTFGPVYVFNSPW`
Result :: 8.02

Query :: Again, but for `TFVLLRSW`
Result :: 2.34

Query :: Lookup `FSRYGRMRFLHCSTFSLMPI`
Result :: -0.07

Query :: Then `DCRIVREHLPCPSFFRSFSR` ?
Result :: 0.164

---

Assay: amyloid nucleation score (Sup35N fusion, yeast selection) (log enrichment); library NNK1; higher = more nucleation; inactive = no reads after selection
observation type: amyloid nucleation score
Would you mind answering with just the numeric figure?

The examples below pair each entry with its known result.
> print(dat)
              substance          observation.type  meas.value
1                FSSIIG  amyloid nucleation score      -0.528
2  VRSFGWTEFKCVTFFQEWIS  amyloid nucleation score      -0.029
3  GNDIEAIKHSGLLLSSWTMG  amyloid nucleation score      -0.253

We next turn to a different substance, shown below.
Query :: Look up amyloid nucleation score: `DLYKSVPKHNQSNMSDSTES`
Result :: -0.631
